Property: percent inhibition of cyc-luc turnover, (B) Mitotic extracts; scope: individual compounds
System: cyclin-luciferase (cyc-luc) turnover, activated APC/C
Assay protocol: cyc-luc turnover in mitotic Xenopus extracts (pre-treated with non-degradable cyclin B)
Format: biochemical
Condition summary: 200 μM compound; extracts in mitosis before addition of compound
Property measured: percent inhibition of cyc-luc turnover, (B) Mitotic extracts (%)

- Compound: "Nc1ncnc(Nc2ccc(S(N)(=O)=O)cc2)n1 [Compound 25]"
  Measurement target: "cyclin-luciferase (cyc-luc) turnover, activated APC/C"
  Reported: 3
- Compound: "Nc1nc2c(c(=O)[nH]1)c1c(N)ncnc1n2C1OC(CO)C(O)C1O (centres unmarked) [Compound 57]"
  Measurement target: "cyclin-luciferase (cyc-luc) turnover, activated APC/C"
  Reported: 4
- Compound: "O=S(=O)(O)c1ccc2c(/N=N/c3ccccc3)c(O)ccc2c1 [Compound 18]"
  Measurement target: "cyclin-luciferase (cyc-luc) turnover, activated APC/C"
  Reported: 4
- Compound: "O=c1[nH]cnc2c1ccc1[nH]ncc12 [Compound 67]"
  Measurement target: "cyclin-luciferase (cyc-luc) turnover, activated APC/C"
  Reported: 3
- Compound: "Nc1ncnc2c1c(Cl)cn2[C@@H]1O[C@H](CO)[C@@H](O)[C@H]1O [Compound 39]"
  Measurement target: "cyclin-luciferase (cyc-luc) turnover, activated APC/C"
  Reported: 9

---

Tested on: Cdh1-stimulated cyc-luc proteolysis (APC/C)
Assay protocol: cyc-luc turnover in interphase Xenopus extracts stimulated with recombinant Cdh1
Type: biochemical
Condition summary: 200 μM compound; negative values reflect stimulation of proteolysis
Property measured: percent inhibition of cyc-luc turnover, (C) Interphase extracts stimulated with Cdh1 (%)

- Compound: "NC(=O)c1ncn(C2OC(CO)C(O)C2O)c1C(N)=O (stereo not drawn) [Compound 82]"
  Quantity unit: "%"
  Reported: 0
- Compound: "Nc1ncnc2c1c(Cl)cn2[C@@H]1O[C@H](CO)[C@@H](O)[C@H]1O [Compound 39]"
  Quantity unit: "%"
  Reported: "−7"
- Compound: "ON=c1[nH]cnc2[nH]cc(Br)c12 [Compound 40]"
  Quantity unit: "%"
  Reported: "−6"
- Compound: "Nc1nc2c(c(=O)[nH]1)c1c(N)ncnc1n2C1OC(CO)C(O)C1O (stereo not drawn) [Compound 57]"
  Quantity unit: "%"
  Reported: 0
- Compound: "O=S(=O)(O)c1ccc2c(/N=N/c3ccccc3)c(O)ccc2c1 [Compound 18]"
  Quantity unit: "%"
  Reported: "−7"
- Compound: "O=C1c2ccccc2C2=NNC3=C(S(=O)(=O)O)C=CC1C23 (stereo not drawn) [Compound 10]"
  Quantity unit: "%"
  Reported: "−4"
- Compound: "O=C(NNC(=S)NC(=O)C12CC3CC(CC(C3)C1)C2)c1ccncc1 [Compound 13]"
  Quantity unit: "%"
  Reported: "−9"
- Compound: "O=c1[nH]c(O)nc2cc3[nH]ncc3cc12 [Compound 62]"
  Quantity unit: "%"
  Reported: "−8"
- Compound: "CC(=O)Nc1ccc(SSc2ccc(NC(C)=O)c3cccnc23)c2ncccc12 [Compound 23]"
  Quantity unit: "%"
  Reported: 100

---

System: cyclin-luciferase (cyc-luc) turnover, activated APC/C
Assay protocol: cyc-luc turnover in mitotic Xenopus extracts (pre-treated with non-degradable cyclin B)
Format: biochemical
Condition summary: 200 μM compound; extracts in mitosis before addition of compound
Property measured: percent inhibition of cyc-luc turnover, (B) Mitotic extracts (%)

- Compound: "NC(=O)c1ncn(C2OC(CO)C(O)C2O)c1C(N)=O (stereo not shown)"
  Reported: 0
- Compound: "N#Cc1c(NN)n(C2OC(CO)C(O)C2O)c2ncnc(N)c12 (stereo not shown)"
  Reported: 0
- Compound: "O=C1c2ccccc2C2=NNC3=C(S(=O)(=O)O)C=CC1C23 (stereo not shown)"
  Reported: 0
- Compound: "O/N=C(/C=N/O)SCCSC(/C=N/O)=N/O"
  Reported: 4

---

Measurement target: 26S proteasomes
Construct: IC50, deubiquitination of UbSic1; other: titration, epoxomicin-treated proteasomes; other: 5 μM C92
Assay protocol: Deubiquitination of UbSic1 by epoxomicin-treated purified 26S proteasomes
Condition summary: titration, epoxomicin-treated proteasomes
pIC50: −log10 of the molar value.

- Compound structure: "O=S(=O)(O)c1ccc2cc3c(cc2c1)NN(c1ccc(/C=C/c2ccc(N4Nc5cc6ccc(S(=O)(=O)O)cc6cc5N4)cc2S(=O)(=O)O)c(S(=O)(=O)O)c1)N3"
  pIC50: 6.00

---

Property: percent inhibition of cyc-luc turnover, (C) Interphase extracts stimulated with Cdh1; scope: individual compounds
System: Cdh1-stimulated cyc-luc proteolysis (APC/C)
Assay protocol: cyc-luc turnover in interphase Xenopus extracts stimulated with recombinant Cdh1
Assay type: biochemical
Condition summary: 200 μM compound; negative values reflect stimulation of proteolysis
Property measured: percent inhibition of cyc-luc turnover, (C) Interphase extracts stimulated with Cdh1

- Compound: "O=C(Nc1ccc(/C=C/c2ccc(NC(=O)c3cc(S(=O)(=O)O)c4cccnc4c3O)cc2S(=O)(=O)O)c(S(=O)(=O)O)c1)c1cc(S(=O)(=O)O)c2cccnc2c1O"
  Reported: "65%"
- Compound: "O/N=C(/C=N/O)SCCSC(/C=N/O)=N/O"
  Reported: "−12%"
- Compound: "O=S(=O)(O)c1ccc2cc3c(cc2c1)NN(c1ccc(/C=C/c2ccc(N4Nc5cc6ccc(S(=O)(=O)O)cc6cc5N4)cc2S(=O)(=O)O)c(S(=O)(=O)O)c1)N3"
  Reported: "100%"
- Compound: "O[Si](c1ccccc1)(c1ccccc1)c1ccccc1.O[Si](c1ccccc1)(c1ccccc1)c1ccccc1.O[Si](c1ccccc1)(c1ccccc1)c1ccccc1.[O]=[V]"
  Reported: "−8%"
- Compound: "Nc1ncnc(Nc2ccc(S(N)(=O)=O)cc2)n1"
  Reported: "−6%"
- Compound: "O=c1[nH]cnc2c1ccc1[nH]ncc12"
  Reported: "−8%"
- Compound: "CC(=O)Nc1ncnc2[nH]ncc12"
  Reported: "−6%"
- Compound: "N#Cc1c(NN)n(C2OC(CO)C(O)C2O)c2ncnc(N)c12 (centres unmarked)"
  Reported: "0%"

---

Test system: cyclin-luciferase (cyc-luc) turnover, APC/C activation
Assay protocol: cyc-luc turnover in interphase Xenopus extracts induced to enter mitosis by non-degradable cyclin B
Type: biochemical
Condition summary: 200 μM compound; added to interphase extracts then induced to enter mitosis; average of three measurements
# if value of percent inhibition of cyc-luc turnover, (A) Interphase extracts reaches 80%, tag class 1; if it stays below, tag class 0

- Compound: "O=c1[nH]cnc2c1ccc1[nH]ncc12 [Compound 67]"
  Label: "class 0"
- Compound: "Nc1ncnc2c1c(Cl)cn2[C@@H]1O[C@H](CO)[C@@H](O)[C@H]1O [Compound 39]"
  Label: "class 1"
- Compound: "NC(=O)c1ncn(C2OC(CO)C(O)C2O)c1C(N)=O (centres unmarked) [Compound 82]"
  Label: "class 1"
- Compound: "O=S(=O)(O)c1ccc2cc3c(cc2c1)NN(c1ccc(/C=C/c2ccc(N4Nc5cc6ccc(S(=O)(=O)O)cc6cc5N4)cc2S(=O)(=O)O)c(S(=O)(=O)O)c1)N3 [Compound 59]"
  Label: "class 1"
- Compound: "ON=c1[nH]cnc2[nH]cc(Br)c12 [Compound 40]"
  Label: "class 0"
- Compound: "CC(=O)Nc1ncnc2[nH]ncc12 [Compound 54]"
  Label: "class 0"
- Compound: "N#Cc1c(NN)n(C2OC(CO)C(O)C2O)c2ncnc(N)c12 (centres unmarked) [Compound 51]"
  Label: "class 1"
- Compound: "O=c1[nH]c(O)nc2cc3[nH]ncc3cc12 [Compound 62]"
  Label: "class 1"
- Compound: "O=C1c2ccccc2C2=NNC3=C(S(=O)(=O)O)C=CC1C23 (centres unmarked) [Compound 10]"
  Label: "class 0"
- Compound: "O/N=C(/C=N/O)SCCSC(/C=N/O)=N/O [Compound 77]"
  Label: "class 1"
- Compound: "O=C(NNC(=S)NC(=O)C12CC3CC(CC(C3)C1)C2)c1ccncc1 [Compound 13]"
  Label: "class 0"
- Compound: "O=C(Nc1ccc(/C=C/c2ccc(NC(=O)c3cc(S(=O)(=O)O)c4cccnc4c3O)cc2S(=O)(=O)O)c(S(=O)(=O)O)c1)c1cc(S(=O)(=O)O)c2cccnc2c1O [Compound 92]"
  Label: "class 0"
- Compound: "CC(=O)Nc1ccc(SSc2ccc(NC(C)=O)c3cccnc23)c2ncccc12 [Compound 23]"
  Label: "class 1"
- Compound: "O=S(=O)(O)c1ccc2c(/N=N/c3ccccc3)c(O)ccc2c1 [Compound 18]"
  Label: "class 0"
- Compound: "Nc1ncnc(Nc2ccc(S(N)(=O)=O)cc2)n1 [Compound 25]"
  Label: "class 0"
- Compound: "Nc1nc2c(c(=O)[nH]1)c1c(N)ncnc1n2C1OC(CO)C(O)C1O (centres unmarked) [Compound 57]"
  Label: "class 1"
- Compound: "O[Si](c1ccccc1)(c1ccccc1)c1ccccc1.O[Si](c1ccccc1)(c1ccccc1)c1ccccc1.O[Si](c1ccccc1)(c1ccccc1)c1ccccc1.[O]=[V] [Compound 61]"
  Label: "class 0"
